Test: Metabolic experiments after oral (intragastric) administration to SD rats
Type: in vivo
Settings: SD, rat, plasma, po, 10 mg/kg, SD rat, Rat 3, read-out: t½ (converted)

| Compound | half-life |
| --- | --- |
| Cn1cc(-c2ccc(-c3ccc4ncc5c(c4c3)n([C@H]3CC[C@@H](O)CC3)c(=O)n5C)cn2)cn1 [Crystal Form I] | 5.81 h |

---

Assay: Metabolic experiments after oral (intragastric) administration to SD rats
Assay type: in vivo
Details: SD (Sprague-Dawley), rat, blood, po, 10 mg/kg, SD rat, Rat 2, read-out: Cmax
Procedure: 11.392 mg of Crystal Form I of Compound 1 hydrochloride was suspended in […] of 0.5% sodium carboxymethylcellulose, mixed to form a homogenous suspension, and then sonicated for 2 min to give a homogenous suspension having a concentration of 2 mg/mL (the suspension present was prepared on the day of administration, and stored for no more than 4 hours). Three SD rats were intragastrically administered at a dose of 10 mg/kg body weight, and blood analysis was performed at the set time points.

| Compound | Cmax, ng/mL |
| --- | --- |
| Cn1cc(-c2ccc(-c3ccc4ncc5c(c4c3)n([C@H]3CC[C@@H](O)CC3)c(=O)n5C)cn2)cn1 [Crystal Form I] | 12100 |

---

Test: Metabolic experiments after oral (intragastric) administration to SD rats
Format: in vivo
Conditions: SD, rat, plasma, po, 10 mg/kg, SD rats, average value, read-out: half-life (converted)
Assay endpoint: half-life (h)

| Compound | Readout number |
| --- | --- |
| Cn1cc(-c2ccc(-c3ccc4ncc5c(c4c3)n([C@H]3CC[C@@H](O)CC3)c(=O)n5C)cn2)cn1 [Crystal Form I] | 5.5 |

---

Experiment: Metabolic experiments after oral (intragastric) administration to SD rats
Format: in vivo
Settings: SD, rat, plasma, po, 10 mg/kg, SD rat, Rat 3
Assay endpoint: AUC(0-inf) (µg·h/mL)

| Compound | Assay endpoint | Readout number |
| --- | --- | --- |
| Cn1cc(-c2ccc(-c3ccc4ncc5c(c4c3)n([C@H]3CC[C@@H](O)CC3)c(=O)n5C)cn2)cn1 [Crystal Form I] | AUC(0-inf) | 163 |

---

Assay: Metabolic experiments after oral (intragastric) administration to SD rats
Type: in vivo
Details: SD (Sprague-Dawley), rat, blood, po, 10 mg/kg, SD rat, Rat 2, read-out: t½ (converted)
Assay endpoint: half-life (h)

| Compound | Readout number |
| --- | --- |
| Cn1cc(-c2ccc(-c3ccc4ncc5c(c4c3)n([C@H]3CC[C@@H](O)CC3)c(=O)n5C)cn2)cn1 [Crystal Form I] | 5.4 |

---

Assay: Metabolic experiments after oral (intragastric) administration to SD rats
Assay type: in vivo
Conditions: SD (Sprague-Dawley), rat, blood, po, 10 mg/kg, SD rat, Rat 1
Assay endpoint: MRT

| Molecule | Result |
| --- | --- |
| Cn1cc(-c2ccc(-c3ccc4ncc5c(c4c3)n([C@H]3CC[C@@H](O)CC3)c(=O)n5C)cn2)cn1 [Crystal Form I] | 6.74 h |

---

Experiment: Metabolic experiments after oral (intragastric) administration to SD rats
Format: in vivo
Details: SD, rat, plasma, po, 10 mg/kg, SD rats, Average of three rats, read-out: Cmax

| Compound | Cmax |
| --- | --- |
| Cn1cc(-c2ccc(-c3ccc4ncc5c(c4c3)n([C@H]3CC[C@@H](O)CC3)c(=O)n5C)cn2)cn1 [Crystal Form I] | 14600 ng/mL |

---

Experiment: Metabolic experiments after oral (intragastric) administration to SD rats
Type: in vivo
Conditions: SD, rat, plasma, po, 10 mg/kg, SD rats, average value, read-out: maximum plasma concentration (Cmax)
Assay endpoint: Cmax (ng/mL)

| Compound | Readout number |
| --- | --- |
| Cn1cc(-c2ccc(-c3ccc4ncc5c(c4c3)n([C@H]3CC[C@@H](O)CC3)c(=O)n5C)cn2)cn1 [Crystal Form I] | 14600 |

---

Experiment: Metabolic experiments after oral (intragastric) administration to SD rats
Format: in vivo
Details: SD, rat, plasma, po, 10 mg/kg, SD rats, Average of three rats

| Compound | Tmax [h] |
| --- | --- |
| Cn1cc(-c2ccc(-c3ccc4ncc5c(c4c3)n([C@H]3CC[C@@H](O)CC3)c(=O)n5C)cn2)cn1 [Crystal Form I] | 3.1 |

---

Test: Metabolic experiments after oral (intragastric) administration to SD rats
Assay type: in vivo
Details: SD (Sprague-Dawley), rat, blood, po, 10 mg/kg, SD rat, Rat 2
Assay endpoint: Tmax

| Compound | Result |
| --- | --- |
| Cn1cc(-c2ccc(-c3ccc4ncc5c(c4c3)n([C@H]3CC[C@@H](O)CC3)c(=O)n5C)cn2)cn1 [Crystal Form I] | 4 h |

---

Assay: Metabolic experiments after oral (intragastric) administration to SD rats
Format: in vivo
Details: SD (Sprague-Dawley), rat, blood, po, 10 mg/kg, SD rats, Average of three rats

| Compound | AUC(0-t), µg·h/mL |
| --- | --- |
| Cn1cc(-c2ccc(-c3ccc4ncc5c(c4c3)n([C@H]3CC[C@@H](O)CC3)c(=O)n5C)cn2)cn1 [Crystal Form I] | 191 |

---

Experiment: Metabolic experiments after oral (intragastric) administration to SD rats
Type: in vivo
Conditions: SD (Sprague-Dawley), rat, blood, po, 10 mg/kg, SD rat, Rat 1

| Compound | Unit | Tmax |
| --- | --- | --- |
| Cn1cc(-c2ccc(-c3ccc4ncc5c(c4c3)n([C@H]3CC[C@@H](O)CC3)c(=O)n5C)cn2)cn1 [Crystal Form I] | h | 2.8 |

---

Assay: Metabolic experiments after oral (intragastric) administration to SD rats
Type: in vivo
Settings: SD, rat, plasma, po, 10 mg/kg, SD rats, Average of three rats, read-out: t½ (converted)

| Molecule | half-life [h] |
| --- | --- |
| Cn1cc(-c2ccc(-c3ccc4ncc5c(c4c3)n([C@H]3CC[C@@H](O)CC3)c(=O)n5C)cn2)cn1 [Crystal Form I] | 5.5 |

---

Experiment: Metabolic experiments after oral (intragastric) administration to SD rats
Format: in vivo
Conditions: SD, rat, plasma, po, 10 mg/kg, SD rats, average value
Assay endpoint: AUC(0-t) (µg·h/mL)

| Compound | Readout number |
| --- | --- |
| Cn1cc(-c2ccc(-c3ccc4ncc5c(c4c3)n([C@H]3CC[C@@H](O)CC3)c(=O)n5C)cn2)cn1 [Crystal Form I] | 191 |

---

Test: Metabolic experiments after oral (intragastric) administration to SD rats
Type: in vivo
Settings: SD, rat, plasma, po, 10 mg/kg, SD rat, Rat 3, read-out: Cmax

| Compound | Unit | Cmax |
| --- | --- | --- |
| Cn1cc(-c2ccc(-c3ccc4ncc5c(c4c3)n([C@H]3CC[C@@H](O)CC3)c(=O)n5C)cn2)cn1 [Crystal Form I] | ng/mL | 12700 |

---

Assay: Metabolic experiments after oral (intragastric) administration to SD rats
Type: in vivo
Settings: SD, rat, plasma, po, 10 mg/kg, SD rat, Rat 3

| Molecule | Unit | Tmax |
| --- | --- | --- |
| Cn1cc(-c2ccc(-c3ccc4ncc5c(c4c3)n([C@H]3CC[C@@H](O)CC3)c(=O)n5C)cn2)cn1 [Crystal Form I] | h | 2.5 |

---

Assay: Metabolic experiments after oral (intragastric) administration to SD rats
Format: in vivo
Details: SD, rat, plasma, po, 10 mg/kg, SD rat, Rat 3
Assay endpoint: AUC(0-t) (µg·h/mL)

| Molecule | Unit | Readout number |
| --- | --- | --- |
| Cn1cc(-c2ccc(-c3ccc4ncc5c(c4c3)n([C@H]3CC[C@@H](O)CC3)c(=O)n5C)cn2)cn1 [Crystal Form I] | µg·h/mL | 154 |

---

Assay: Metabolic experiments after oral (intragastric) administration to SD rats
Assay type: in vivo
Conditions: SD (Sprague-Dawley), rat, blood, po, 10 mg/kg, SD rat, Rat 2
Procedure: 11.392 mg of Crystal Form I of Compound 1 hydrochloride was suspended in […] of 0.5% sodium carboxymethylcellulose, mixed to form a homogenous suspension, and then sonicated for 2 min to give a homogenous suspension having a concentration of 2 mg/mL (the suspension present was prepared on the day of administration, and stored for no more than 4 hours). Three SD rats were intragastrically administered at a dose of 10 mg/kg body weight, and blood analysis was performed at the set time points.
Assay endpoint: AUC(0-t)

| Compound | Assay endpoint | Result |
| --- | --- | --- |
| Cn1cc(-c2ccc(-c3ccc4ncc5c(c4c3)n([C@H]3CC[C@@H](O)CC3)c(=O)n5C)cn2)cn1 [Crystal Form I] | AUC(0-t) | 183 µg·h/mL |
